Values were extracted from ChEMBL document CHEMBL1201862.

# Test system: COLO 205
# protocol text: NCI tumour cell line growth inhibition, 48 h
Active and inactive are the calls of the source. Rule as the data show it: active = GI50 up to about 1.1 µM and inactive = higher.
Reported GI50 by item:

compound	GI50
O=c1cccccc1NCCCCCCNc1cccccc1=O	> 100 µM (inactive)
C[C@@H]1OC2(O)[C@@H]3CCCN3C(=O)N(Cc3ccccc3)N2C1=O (some centres not stated)	> 100 µM (inactive)
CC(=O)N1C(C(=O)NN2CCOCC2)CSC1c1ccccc1 (configuration not stated)	> 100 µM (inactive)
CC1CCCCCC(=O)c2c(O)cc(O)cc2CC(=O)O1 (configuration not stated)	> 100 µM (inactive)
O=c1cc[nH]c2c1ccc1ncccc12	> 100 µM (inactive)
O=S(=O)(O)c1ccc(NN(c2c(O)ccc3ccccc23)S(=O)(=O)O)cc1	> 100 µM (inactive)
O=S(=O)(/N=C1/S/C(=N\c2ccccc2)N(c2ccccc2)/C1=N/S(=O)(=O)c1ccccc1)c1ccccc1	26.9 µM (inactive)
CC(=O)O[C@H]1C(=O)[C@@]2(C)[C@H]([C@H](OC(=O)c3ccccc3)[C@]3(O)C[C@H](OC(=O)[C@H](O)[C@@H](NC(=O)c4ccoc4)c4ccccc4)C(C)=C1C3(C)C)[C@]1(OC(C)=O)CO[C@@H]1C[C@@H]2O	0.026 µM (active)
CS(=O)(=O)NNS(=O)(=O)c1ccc(Cl)cc1	> 100 µM (inactive)
Cc1nnc(N)nc1C/C=C/C(Sc1ccc(Cl)cc1)c1ccccc1 (configuration not stated)	4.5 µM (inactive)
CCC1=CCC23C(=O)C=CC(=O)C2(C1)C(=O)c1cccc(OC)c1C3=O (configuration not stated)	14.9 µM (inactive)
C/C(=N\NC(=S)Nc1ccc([N+](=O)[O-])cc1S(=O)(=O)O)c1ccccn1	36.5 µM (inactive)
C/N=c1\ss/c(=N\C(=S)N(C)C)n1-c1ccccc1	> 100 µM (inactive)
COc1cc([C@@H]2c3cc4c(cc3[C@@H](NC(=O)c3ccc(C#N)cc3)C3COC(=O)[C@@H]32)OCO4)cc(OC)c1O (some centres not stated)	2.94 µM (inactive)
COC(=O)c1c(C(=O)OC)c2ccccn2c1-c1cc(OC)c(Br)c(=O)o1	> 100 µM (inactive)
COc1cccc(C2c3cc4c(cc3OC(C)(O)C2C)OCO4)c1O (configuration not stated)	2.19 µM (inactive)
CCOC(=O)Cc1nnc2n(-c3ccccc3)c(=O)c3ccccc3n12	83.8 µM (inactive)
O=C(CC(=O)c1ccccc1)CC(O)(c1ccccc1)c1ccccc1	10.5 µM (inactive)
Nc1nc(NCC2(CO)CCC2)cc(=O)[nH]1	> 100 µM (inactive)
Cn1cc2c(n1)c(N/N=C/c1ccccc1)nn1nnnc21	> 100 µM (inactive)
COC(=O)C1=C(OC)c2cc3c(cc2C(c2cc(OC)c(OC)c(OC)c2)C1C(=O)OC)OCO3 (configuration not stated)	38.7 µM (inactive)
CC(C)OC(=O)c1cc(NC(=O)C(C)(C)C)c(F)cc1Cl	> 100 µM (inactive)
CN(C(=O)C1CCCCCC1=O)c1ccccc1Cl (configuration not stated)	> 100 µM (inactive)
COC(=O)c1ccc(/C=C2\CCc3ccccc3C2=O)cc1	> 100 µM (inactive)
N#Cc1c(Nc2nc3ccccc3s2)c2ccccc2n2c1nc1ccccc12	> 100 µM (inactive)
O=S(=O)(c1ccccc1)N1CCN(S(=O)(=O)c2ccccc2)c2ccccc21	> 100 µM (inactive)
O=C(Nc1nncs1)NS(=O)(=O)n1cnc2ccccc21	> 100 µM (inactive)
O=NN1CCCS1(=O)=O	> 100 µM (inactive)
CN(C)CCNS(=O)(=O)c1ccc(N)cc1	> 100 µM (inactive)
CC1CN(c2cc3c(cc2F)c(=O)c(C(=O)O)cn3-c2ccc(F)cn2)CC(C)N1 (configuration not stated)	> 100 µM (inactive)
C=CCCCCCCCCCOC1C=CC(O)C(CO)O1 (configuration not stated)	37.1 µM (inactive)
CC(C)(C)OC(=O)NCCc1ccc(N)cc1	> 100 µM (inactive)
NC(=S)Nc1ccc(S(=O)(=O)Nc2ccc(S(N)(=O)=O)cc2)cc1	> 100 µM (inactive)
CC(C)Cc1cccc(C(C)C)c1NC(=O)CCC(=O)N/N=C1\C(=N/NC(=O)CCC(=O)Nc2c(C(C)C)cccc2C(C)C)C(c2ccc3c(c2)OCO3)Oc2ccccc21 (configuration not stated)	> 100 µM (inactive)
O=Cc1c2n(c3ccccc13)N[C@@](Cc1ccc(O)cc1)(C(=O)O)C2	> 100 µM (inactive)
C[C@]12CCC(=O)CC1CCCC2=O (some centres not stated)	> 100 µM (inactive)
Nc1ccccc1.O=P(O)(O)c1ccccc1	> 100 µM (inactive)
Cc1ccc2ccc3ccc(C)nc3c2n1	0.491 µM (active)
NNC(=O)CC(=O)Nc1ccc(S(=O)(=O)c2ccc(NC(=O)CC(=O)NN)cc2)cc1	> 100 µM (inactive)
O=[N+]([O-])c1ccc(C(O)(C#CCN2CCCC2)c2ccccc2)cc1 (configuration not stated)	18 µM (inactive)
O=[N+]([O-])c1ccc(-c2ccc(-c3csc(Nc4ccccc4)n3)o2)cc1	20.9 µM (inactive)
CSC(C1c2ccccc2N(C)c2[nH]c(=O)n(C)c(=O)c21)S(=O)(=O)c1ccc(C)cc1 (configuration not stated)	> 100 µM (inactive)
